ASSAY SYSTEM: SUMO (Homo sapiens)
ASSAY NAME: SUMO activity (Table I, biological activities)
Assay type: biochemical
Parameters: key: + (less active); ++ (active); +++ (most active)

MOLECULE: COC(=O)C1=C(C(=O)OC)C2(C(Cc3ccc(C(F)(F)F)cc3)Nc3ccccc3)C=CC1O2 (stereo not shown)
ASSAY SYSTEM: SUMO (Homo sapiens)
SUMO: ++

MOLECULE: COC(=O)C1=C(C(=O)Nc2cnc(C)nc2)C2C=CC1(C(Cc1ccccc1)Nc1ccccc1)O2 (stereo not shown)
ASSAY SYSTEM: SUMO (Homo sapiens)
SUMO: +++

MOLECULE: COC(=O)C1=C(C(=O)Nc2ccc3c(c2)OCO3)C2C=CC1(C(Cc1ccccc1)Nc1ccccc1)O2 (stereo not shown)
ASSAY SYSTEM: SUMO (Homo sapiens)
SUMO: +

MOLECULE: COC(=O)C1=C(C(=O)OC)C2(C(Cc3ccccc3Cl)Nc3ccccc3)CCC1O2 (stereo not shown)
ASSAY SYSTEM: SUMO (Homo sapiens)
SUMO: +

----------
ASSAY SYSTEM: SUMO (Homo sapiens, UniProt Q9UBT2)
ASSAY NAME: SUMO activity (Table I, biological activities)
Type: biochemical
Parameters: key: + (less active); ++ (active); +++ (most active)
PROPERTY NAME: SUMO

Recorded results for 6 molecules are shown here.
MOLECULE: COC(=O)C1=C(C(=O)Nc2cccc(F)c2)C2C=CC1(C(Cc1ccccc1)Nc1ccccc1)O2 (centres unmarked)
ASSAY SYSTEM: SUMO (Homo sapiens, UniProt Q9UBT2)
SUMO: ++

MOLECULE: COC(=O)C1=C(C(=O)NC2CN(C)C2)C2C=CC1(C(Cc1ccccc1)Nc1ccccc1)O2 (centres unmarked)
ASSAY SYSTEM: SUMO (Homo sapiens, UniProt Q9UBT2)
SUMO: +++

MOLECULE: COC(=O)C1=C(C(=O)OC)C2(C(Cc3ccccc3Cl)Nc3ccccc3)C=CC1O2 (centres unmarked)
ASSAY SYSTEM: SUMO (Homo sapiens, UniProt Q9UBT2)
SUMO: +++

MOLECULE: CCN(CC)CCNC(=O)C1=C(C(=O)OC)C2(C(Cc3ccccc3)Nc3ccc(F)cc3F)C=CC1O2 (centres unmarked) [Compound 412]
ASSAY SYSTEM: SUMO (Homo sapiens, UniProt Q9UBT2)
SUMO: ++

MOLECULE: COC(=O)C1=C(C(=O)Nc2ccc(C)c(F)c2)C2C=CC1(C(Cc1ccccc1)Nc1ccccc1F)O2 (centres unmarked)
ASSAY SYSTEM: SUMO (Homo sapiens, UniProt Q9UBT2)
SUMO: +++

MOLECULE: COCCN1CCC(NC(=O)C2=C(C(=O)OC)C3(C(Cc4ccccc4)Nc4ccccc4)CCC2O3)CC1 (centres unmarked)
ASSAY SYSTEM: SUMO (Homo sapiens, UniProt Q9UBT2)
SUMO: +

SUMO for COC(=O)C1=CC2(C(Cc3ccccc3)N(C)c3ccccc3)C=CC1O2 (centres unmarked) is ++

Input COC(=O)C1=C(C(=O)NC2CCN(C(C)=O)CC2)C2CCC1(C(Cc1ccccc1)Nc1ccccc1)O2 (centres unmarked) . Output SUMO: +

----------
ASSAY SYSTEM: UniProtKB Q9UBT2
Sequence (Q9UBT2 1-640): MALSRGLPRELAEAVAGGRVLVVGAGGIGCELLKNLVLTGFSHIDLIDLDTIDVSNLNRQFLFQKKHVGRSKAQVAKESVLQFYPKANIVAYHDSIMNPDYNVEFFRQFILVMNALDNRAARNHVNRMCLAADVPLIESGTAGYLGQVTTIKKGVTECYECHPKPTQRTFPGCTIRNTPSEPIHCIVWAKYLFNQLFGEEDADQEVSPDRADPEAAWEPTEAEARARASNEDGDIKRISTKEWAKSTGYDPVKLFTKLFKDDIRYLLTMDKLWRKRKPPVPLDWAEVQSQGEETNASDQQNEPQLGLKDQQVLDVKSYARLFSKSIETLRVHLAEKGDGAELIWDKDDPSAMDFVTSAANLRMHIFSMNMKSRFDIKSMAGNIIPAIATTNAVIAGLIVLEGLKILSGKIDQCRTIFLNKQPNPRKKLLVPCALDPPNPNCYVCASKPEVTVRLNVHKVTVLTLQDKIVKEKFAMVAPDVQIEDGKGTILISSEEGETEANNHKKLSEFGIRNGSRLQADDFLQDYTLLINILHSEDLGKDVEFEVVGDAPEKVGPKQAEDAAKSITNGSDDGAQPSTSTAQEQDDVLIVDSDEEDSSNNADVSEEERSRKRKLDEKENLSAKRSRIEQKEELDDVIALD
Sequence (Q9UBE0 1-346 partner): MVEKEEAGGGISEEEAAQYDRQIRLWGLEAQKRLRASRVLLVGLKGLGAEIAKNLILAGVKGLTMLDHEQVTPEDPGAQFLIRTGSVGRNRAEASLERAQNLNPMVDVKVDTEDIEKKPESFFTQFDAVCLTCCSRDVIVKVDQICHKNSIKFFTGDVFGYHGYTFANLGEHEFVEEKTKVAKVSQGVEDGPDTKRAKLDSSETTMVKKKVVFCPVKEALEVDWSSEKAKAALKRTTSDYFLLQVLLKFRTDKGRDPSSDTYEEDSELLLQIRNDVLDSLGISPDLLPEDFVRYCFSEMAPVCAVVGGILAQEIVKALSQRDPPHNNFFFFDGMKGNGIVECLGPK
ASSAY NAME: SUMO activity (Table I, biological activities)
Type: biochemical
Design: key: + (less active); ++ (active); +++ (most active)
PROPERTY NAME: SUMO

MOLECULE: COC(=O)C1=C(C(=O)OC)C2(C(Cc3ccccc3Cl)Nc3cccc(Oc4ccccc4)c3)C=CC1O2 (stereo not shown)
SUMO: ++
--
MOLECULE: COC(=O)C1=C(C(=O)NCc2ccncc2)C2C=CC1(C(Cc1ccccc1)Nc1ccccc1)O2 (stereo not shown)
SUMO: ++
--
MOLECULE: CCOC(=O)C1=C(C(=O)OCC)C2(C(Cc3ccccc3)Nc3cc(F)cc(F)c3)C=CC1O2 (stereo not shown)
SUMO: ++
--
MOLECULE: CCOC(=O)C1=C(C(=O)Nc2cccc(F)c2C)C2C=CC1(C(Nc1ccccc1)c1ccc(CN3CCOCC3)cc1)O2 (stereo not shown)
SUMO: ++
--
MOLECULE: COC(=O)C1=C(C(=O)OC)C2(C(Cc3ccc(C4CC4)cc3)Nc3ccccc3)C=CC1O2 (stereo not shown)
SUMO: ++
--
MOLECULE: COC(=O)C1=C(C(=O)OC)C2(C(Cc3ccc(OC(F)(F)F)cc3)Nc3ccccc3)C=CC1O2 (stereo not shown)
SUMO: ++
--
MOLECULE: CCN(CC)CCNC(=O)C1=C(C(=O)OC)C2C=CC1(C(Cc1ccccc1)Nc1cc(F)cc(F)c1)O2 (stereo not shown)
SUMO: ++
--
MOLECULE: COC(=O)C1=C(C(=O)OC)C2(C(Cc3ccccc3)Nc3ccccc3)C=CC1(C)O2 (stereo not shown) [Compound 259]
SUMO: ++

// SUMO value for CCNC(=O)C1=C(C(=O)NCC)C2(C(Cc3ccccc3Cl)Nc3ccccc3)C=CC1O2 (stereo not shown) : +

Just so you know, measured SUMO for CCOc1cccc(NC(Cc2ccccc2)C23C=CC(O2)C(C(=O)NC2CCN(C)C2)=C3C(=O)OC)c1 (stereo not shown) came out at +++

The molecule identified as CCOC(=O)C1=C(C(=O)Nc2ccccc2Oc2ccccc2)C2C=CC1(C(Nc1ccccc1)c1ccc(CN3CCOCC3)cc1)O2 (stereo not shown) registered its SUMO at +

Record COC(=O)C1=C(C(=O)NCCN(C)C)C2C=CC1(C(Cc1ccccc1)Nc1c(F)cccc1F)O2 (stereo not shown) [Compound 431] , field SUMO: ++

get_value(item= COC(=O)C1=C(C(=O)NC(C)C(N)=O)C2C=CC1(C(Cc1ccccc1)Nc1cc(F)cc(F)c1)O2 (stereo not shown) , readout=SUMO) returns ++
